Data origin, for the record: ChEMBL document CHEMBL4888484

System: Plasmodium falciparum
method.summary: Primary screen in NF54 nanoGlo assay, in single point, at 2uM, 72h
Assay type: functional, Erythrocyte
reported.conditions: timepoint 72 hour
Out of some 150,000 compounds screened, about 540 (0.36%) showed an effect of 50% or more. The entries come from a sample that favours strong results as a whole.
Reported % Inhibition by item:
Give the figure together with its unit, number first.

CCN(Cc1nc(C(N)=O)no1)Cc1c(F)cccc1Cl -6%

Name the recorded % Inhibition of the item CC(=O)NC[C@H]1CN(c2ccnc(C(C)(C)C)n2)CCO1 in your answer. -12%

Complete the entry with % Inhibition for N#Cc1nc2c(S(=O)(=O)c3ccccc3)c(N)n(Cc3ccc(Cl)cc3)c2nc1C#N -16%

Give the reported % Inhibition for this compound. COc1ccc(-c2nc(C)c(C(=O)Nc3n[nH]c(CC(C)C)n3)s2)cc1OC 15%

Consider the compound COc1cc(C(=O)Nc2scnc2C)cc(OC)c1OC and give its recorded % Inhibition. 45%

Answer with the recorded % Inhibition of COc1cccc(-c2nc(C)c(C(=O)Nc3nc(C(C)C)n[nH]3)s2)c1 only. 68%

###

Tested on: Plasmodium falciparum
method.summary: Primary screen in NF54 nanoGlo assay, in single point, at 2uM, 72h
Assay type: functional, Erythrocyte
reported.conditions: timepoint 72 hour
The whole screen tested about 150,000 compounds, of which about 540 (0.36%) showed an effect of 50% or more. The entries come from a sample that favours strong results as a whole.
measure.name: % Inhibition (%)
Numeric answer only, unit % assumed.

Sample answers from the record:
Cc1ccc(-c2cccc(C(=O)NCC3CCOCC3)c2)c(C)n1 -2
COc1ccc(-c2cc3c(=O)n(CCNC(=O)Cc4ccc(F)cc4)ccn3n2)cc1 -7
CC(C)c1cc(=O)[nH]c(-n2nc(C3CC3)cc2NC(=O)Cc2ccc(Cl)cc2)n1 74
O=C(c1ccc(O)cc1)N1CCN(Cc2ccccn2)[C@@H]2CS(=O)(=O)C[C@@H]21 3
Cc1ccc(CNC(=O)CCNc2c(-c3cccc(F)c3)nc3cnccn23)o1 -18

Quickly give me recorded % Inhibition for O=C(NCc1ccco1)Nc1nccs1 1

Specify measured % Inhibition for N#Cc1cc(OCC(F)F)nc2ccccc12 . -5

For the compound O=C(NCC1CCOCC1)c1ccc(-c2ccc(C(F)(F)F)cn2)cc1 , report % Inhibition. 1

Supply recorded % Inhibition for COc1ccc(C(=O)OCC(=O)Nc2cc(C3CC3)nn2-c2ccccc2)c(O)c1 here. -7

Return value of % Inhibition for input Cc1nccn1C[C@H]1CCCN(C(=O)Cn2cccn2)C1 , no commentary. -3

Please supply the value of reported % Inhibition for the item Cc1cc(C(=O)Cn2cc(Cl)c(=O)[nH]c2=O)c(Cl)cc1F -1

Read off the recorded % Inhibition for COc1cccc(N2C(=O)C[C@]3(CC3(c3ccccc3)c3ccccc3)C2=O)c1 35

Identify measured % Inhibition corresponding to CC(C)c1cc(=O)[nH]c(-n2nc(C3CC3)cc2NC(=O)COc2ccc3ccccc3c2)n1 54

###

Tested on: Plasmodium falciparum
method.summary: Primary screen in NF54 nanoGlo assay, in single point, at 2uM, 72h
Type: functional, Erythrocyte
reported.conditions: timepoint 72 hour
Among all 150,000 compounds or so, about 540 (0.36%) showed an effect of 50% or more. Only a selection was taken, and strong results are over-represented in it overall.
We begin with a simple list: items and their reported % Inhibition.
// note: answer is a bare numeric in %

Check out these entries, answers already filled in.
compound	system.under.test	measurement.unit	% Inhibition
COCCCCC(=O)N1CCC[C@H](N)[C@@H]1c1ccccc1OC	Plasmodium falciparum	%	4
COc1ccc(C(=O)C[n+]2cc(-c3cccc(Br)c3)n(C)c2N)cc1	Plasmodium falciparum	%	3
O=C(CCn1nc2ccccn2c1=O)Nc1cnccc1Nc1ccc(F)cc1	Plasmodium falciparum	%	-25
O=C(O)c1cccc(-c2noc(C3CC3)n2)c1	Plasmodium falciparum	%	11
CC(C)(C)OC(=O)N1CC2CC1C2C(=O)NCC1CCCO1 (configuration not stated)	Plasmodium falciparum	%	14

# return recorded % Inhibition for entry NC(=O)[C@@H]1CCCN1S(=O)(=O)c1ccc2c(c1)CCC(=O)N2 -13

Recall and state the measured % Inhibition for O=C(Cn1nnc2ccccc21)c1ccccc1 . -12
